Recorded IC50 for the following molecules
target: full-length human PTPN2 (TC45) (1-387) (Homo sapiens (Human), UniProt P17706); assay: Enzymatic assay used to determine potency of PTPN2 inhibitors (full length PTPN2 DiFMUP assay); format: biochemical; settings: 0.5 nM PTPN2, 100 μM DiFMUP, 30 min at room temperature
Sequence (P17706 other isoform, or with tags, fused parts or gaps): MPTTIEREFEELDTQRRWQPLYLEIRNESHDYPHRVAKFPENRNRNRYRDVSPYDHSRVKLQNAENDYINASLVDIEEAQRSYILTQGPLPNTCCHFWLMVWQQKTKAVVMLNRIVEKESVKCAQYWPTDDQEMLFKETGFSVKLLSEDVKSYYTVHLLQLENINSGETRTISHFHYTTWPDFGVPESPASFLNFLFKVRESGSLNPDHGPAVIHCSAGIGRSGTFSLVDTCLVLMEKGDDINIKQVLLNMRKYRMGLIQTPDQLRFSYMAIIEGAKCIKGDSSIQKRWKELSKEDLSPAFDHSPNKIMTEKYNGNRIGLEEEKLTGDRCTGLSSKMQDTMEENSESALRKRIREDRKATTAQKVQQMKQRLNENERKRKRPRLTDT
Expressed in nM, but write only the number.

Known results for molecules:
>  <MOLECULE>
CCCCCN1CCCC(Cc2cc(O)c(N3CC(=O)NS3(=O)=O)c(F)c2)C1 (stereo not drawn)

>  <IC50 [nM]>
35

$$$$
>  <MOLECULE>
O=C1CN(c2c(O)cc(CCN3CCC(C(F)(F)F)C3)cc2F)S(=O)(=O)N1 (stereo not drawn)

>  <IC50 [nM]>
2

$$$$
>  <MOLECULE>
O=C1CN(c2c(O)cc(CC3CCN(CCN4CCCCC4)C3)cc2F)S(=O)(=O)N1 (stereo not drawn)

>  <IC50 [nM]>
7

$$$$
>  <MOLECULE>
CCCN1CCC(Cc2cc(O)c(N3CC(=O)NS3(=O)=O)c(F)c2)C1 (stereo not drawn)

>  <IC50 [nM]>
18

$$$$
>  <MOLECULE>
CC(C)(C)CN1CCC(Cc2cc(O)c(N3CC(=O)NS3(=O)=O)c(F)c2)C1 (stereo not drawn)

>  <IC50 [nM]>
15

$$$$

Qu. Consider the molecule shown here: CCCC1CCN(CCc2cc(O)c(N3CC(=O)NS3(=O)=O)c(F)c2)C1 (stereo not drawn) What is its recorded IC50?
Ans. 4

Qu. Same question, O=C1CN(c2c(O)cc(CCN3CC(CF)C3)cc2F)S(=O)(=O)N1 this time
Ans. 3

Qu. Same question, O=C1CN(c2c(O)cc(CC3CCCNCC3)cc2F)S(=O)(=O)N1 (stereo not drawn) this time
Ans. 15

Qu. Same question, O=C1CN(c2c(O)cc(CCN3CCCCC3)cc2F)S(=O)(=O)N1 this time
Ans. 2

* * *

Measured pIC50 (full-length human PTPN2 (TC45) (1-387) (Homo sapiens (Human)))
In plain terms, pIC50 is the concentration in mol/L turned into minus its base-10 logarithm.

Known results for compounds:
>  <COMPOUND>
O=C1CN(c2c(O)cc(CCN3CCC(O)C3)cc2F)S(=O)(=O)N1 (centres unmarked) [Example 103]

>  <pIC50>
7.30

$$$$
>  <COMPOUND>
C[C@@H]1CCN(CCc2cc(O)c(N3CC(=O)NS3(=O)=O)c(F)c2)C1 [Example 138]

>  <pIC50>
8.70

$$$$
>  <COMPOUND>
O=C1CN(c2c(O)cc(CCC3CCNC3)cc2F)S(=O)(=O)N1 (centres unmarked) [Example 62]

>  <pIC50>
7.80

$$$$

Qu. Form entry - test system: full-length human PTPN2 (TC45) (1-387) (Homo sapiens (Human)); read-out: pIC50; compound: O=C1CN(c2c(O)cc(CC3CCCN(CC4CCCC4)C3)cc2F)S(=O)(=O)N1 (centres unmarked) [Example 34]
Ans. 7.37

Qu. Same question, O=C1CN(c2c(O)cc(C[C@H]3CCCNCC3)cc2F)S(=O)(=O)N1 (single isomer, unassigned) [Example 58] this time
Ans. 7.29

Qu. Same question, CCC1CCCN1CCc1cc(O)c(N2CC(=O)NS2(=O)=O)c(F)c1 (centres unmarked) [Example 84] this time
Ans. 7.89

* * *

Measured log10(IC50) (full-length human PTPN2 (TC45) (1-387) (Homo sapiens (Human), UniProt P17706))
Record value = log10 of IC50 given in nM.

Known results for compounds:
>  <COMPOUND>
O=C1CN(c2c(O)cc(CCN3CCC(F)(F)C3)cc2F)S(=O)(=O)N1 [Example 91]

>  <log10(IC50)>
1.56

$$$$
>  <COMPOUND>
CCCN1CCCC(Cc2cc(O)c(N3CC(=O)NS3(=O)=O)c(F)c2)C1 (stereo not shown) [Example 49]

>  <log10(IC50)>
1.98

$$$$
>  <COMPOUND>
CC(C)N1CCC(Cc2cc(O)c(N3CC(=O)NS3(=O)=O)c(F)c2)C1 (stereo not shown) [Example 2]

>  <log10(IC50)>
1.15

$$$$
>  <COMPOUND>
CC(C)(C)CCN1CCCC(Cc2cc(O)c(N3CC(=O)NS3(=O)=O)c(F)c2)C1 (stereo not shown) [Example 35]

>  <log10(IC50)>
1.49

$$$$
>  <COMPOUND>
O=C1CN(c2c(O)cc(CC3CCCN(Cc4ccoc4)C3)cc2F)S(=O)(=O)N1 (stereo not shown) [Example 45]

>  <log10(IC50)>
1.48

$$$$

Qu. Consider the compound shown here: O=C1CN(c2c(O)cc(CCN3CCC4(CC4)C3)cc2F)S(=O)(=O)N1 [Example 131] What is its recorded log10(IC50)?
Ans. 0.00

Qu. Same question, O=C1CN(c2c(O)cc(CCN3CCNCC3)cc2F)S(=O)(=O)N1 [Example 100] this time
Ans. 0.70

Qu. Same question, CC(C)CN1CCCC1CCc1cc(O)c(N2CC(=O)NS2(=O)=O)c(F)c1 (stereo not shown) [Example 68] this time
Ans. 1.66

* * *

biological target: full-length human PTPN2 (TC45) (1-387) (Homo sapiens (Human), UniProt P17706)
Simple rule here: IC50 less than 3 nM is met, otherwise not met.

>  <COMPOUND>
O=C1CN(c2c(O)cc(CCN3CC[C@H](C(F)(F)F)C3)cc2F)S(=O)(=O)N1 (single isomer, unassigned)

>  <LABEL_CLASS>
met

$$$$

Qu. Given the entry O=C1CN(c2c(O)cc(CC3CCN(CC4CCC4)C3)cc2F)S(=O)(=O)N1 (centres unmarked) , would its reported IC50 be below 3 nM?
Ans. not met

Qu. Same question, O=C1CN(c2c(O)cc(CCC3CCCN3)cc2F)S(=O)(=O)N1 (centres unmarked) this time
Ans. not met

Qu. Same question, CN1CCCC(Cc2cc(O)c(N3CC(=O)NS3(=O)=O)c(F)c2)C1 (centres unmarked) this time
Ans. not met

Qu. Same question, O=C1CN(c2c(O)cc(CCN3CCC4(CCC4)C3)cc2F)S(=O)(=O)N1 this time
Ans. met

Qu. Same question, O=C1CN(c2c(O)cc(CC3CCCN(Cc4cn[nH]c4)C3)cc2F)S(=O)(=O)N1 (centres unmarked) this time
Ans. not met

* * *

Measured pIC50 (full-length human PTPN2 (TC45) (1-387) (Homo sapiens (Human), UniProt P17706))
In plain terms, pIC50 is the concentration in mol/L turned into minus its base-10 logarithm.

>  <COMPOUND>
O=C1CN(c2c(O)cc(CC3CCCN(CC4CC4)C3)cc2F)S(=O)(=O)N1 (centres unmarked)

>  <pIC50>
7.18

$$$$

Then there is this compound:
Qu. Consider the compound shown here: O=C1CN(c2c(O)cc(CCN3CC(CC(F)(F)F)C3)cc2F)S(=O)(=O)N1 What is its recorded pIC50?
Ans. 8.52

* * *

target: full-length human PTPN2 (TC45) (1-387) (Homo sapiens (Human), UniProt P17706)
Simple rule here: IC50 less than 20 nM is Condition met, otherwise Condition not met.

Previously resolved entries follow.
>  <COMPOUND>
O=C1CN(c2c(O)cc(CCN3CC4(CCC4)C3)cc2F)S(=O)(=O)N1 [Example 124]

>  <LABEL_CLASS>
Condition met

$$$$
>  <COMPOUND>
O=C1CN(c2c(O)cc(CCN3CCC4(CCCCC4)C3)cc2F)S(=O)(=O)N1 [Example 116]

>  <LABEL_CLASS>
Condition met

$$$$
>  <COMPOUND>
O=C1CN(c2c(O)cc(CCN3CCC(CO)C3)cc2F)S(=O)(=O)N1 (stereo not drawn) [Example 102]

>  <LABEL_CLASS>
Condition met

$$$$
>  <COMPOUND>
CN1CCCC(Cc2cc(O)c(N3CC(=O)NS3(=O)=O)c(F)c2)CC1 (stereo not drawn) [Example 60]

>  <LABEL_CLASS>
Condition not met

$$$$
>  <COMPOUND>
O=C1CN(c2c(O)cc(CC3CCN(CC4CC4)C3)cc2F)S(=O)(=O)N1 (stereo not drawn) [Example 10]

>  <LABEL_CLASS>
Condition not met

$$$$
>  <COMPOUND>
O=C1CN(c2c(O)cc(CCN3CC[C@H](F)C3)cc2F)S(=O)(=O)N1 [Example 94]

>  <LABEL_CLASS>
Condition met

$$$$
>  <COMPOUND>
O=C1CN(c2c(O)cc(CCN3CCC(F)C3)cc2F)S(=O)(=O)N1 (stereo not drawn) [Example 92]

>  <LABEL_CLASS>
Condition met

$$$$
>  <COMPOUND>
CN1CCCCC(Cc2cc(O)c(N3CC(=O)NS3(=O)=O)c(F)c2)C1 (stereo not drawn) [Example 56]

>  <LABEL_CLASS>
Condition not met

$$$$

Qu. Given the entry CN(C)CCN1CCC(Cc2cc(O)c(N3CC(=O)NS3(=O)=O)c(F)c2)C1 (stereo not drawn) [Example 3] , would its reported IC50 be below 20 nM?
Ans. Condition met

Qu. Same question, O=C1CN(c2c(O)cc(CC3CCN(CC4CCCO4)C3)cc2F)S(=O)(=O)N1 (stereo not drawn) [Example 14] this time
Ans. Condition met

Qu. Same question, CCCC1CNCC1Cc1cc(O)c(N2CC(=O)NS2(=O)=O)c(F)c1 (stereo not drawn) [Example 29] this time
Ans. Condition met

Qu. Same question, CC[C@H]1CCN(CCc2cc(O)c(N3CC(=O)NS3(=O)=O)c(F)c2)C1 [Example 109] this time
Ans. Condition met

Qu. Same question, CCCCCCN1CCCC(Cc2cc(O)c(N3CC(=O)NS3(=O)=O)c(F)c2)C1 (stereo not drawn) [Example 36] this time
Ans. Condition not met

Qu. Same question, CC(C)CCN1CCCCC1Cc1ccc(O)c(N2CC(=O)NS2(=O)=O)c1F (stereo not drawn) [Example 76] this time
Ans. Condition met
